IC50 values, listed per item
# System: human cervix carcinoma (HeLa)
# protocol.text: Cytostatic activity, inhibition of HeLa cell proliferation
# Format: cell-based
# condition.set: 96 h, read-out: IC50 HeLa
Only the number, expressed in µM, is required.

Below, 6 compounds whose answers are already recorded.
INSERT INTO assay_data (compound, reported) VALUES
  ('CCOP(=O)(OCC)[C@H]1C[C@H](c2nc3ccccc3c(=O)n2Cc2ccccc2F)ON1C (relative stereo) [trans-11f/cis-11f (90:10)]', 76),
  ('CCOP(=O)(OCC)[C@H]1C[C@H](c2nc3ccccc3c(=O)n2Cc2ccc(F)cc2F)ON1C (relative stereo) [trans-11i/cis-11i (97:3)]', 55),
  ('CCOP(=O)(OCC)[C@H]1C[C@H](c2nc3ccccc3c(=O)n2Cc2cccc([N+](=O)[O-])c2)ON1C (relative stereo) [trans-11d/cis-11d (90:10)]', 50),
  ('CCOP(=O)(OCC)[C@H]1C[C@H](c2nc3ccccc3c(=O)n2Cc2ccc(F)cc2)ON1C (relative stereo) [trans-11h]', 58),
  ('CCOP(=O)(OCC)[C@H]1C[C@H](c2nc3ccccc3c(=O)n2CC)ON1C (relative stereo) [trans-11k/cis-11k (97:3)]', 97),
  ('CCOP(=O)(OCC)[C@H]1C[C@H](c2nc3ccccc3c(=O)n2Cc2ccccc2)ON1C (relative stereo) [trans-11b/cis-11b (90:10)]', 82);

## Input Assign IC50 to the following record: CCOP(=O)(OCC)[C@H]1C[C@H](c2nc3ccccc3c(=O)n2Cc2ccccc2[N+](=O)[O-])ON1C (relative stereo) [trans-11c]
## Output 97

## Input Assign IC50 to the following record: CCOP(=O)(OCC)[C@H]1C[C@H](c2nc3ccccc3c(=O)n2Cc2ccc([N+](=O)[O-])cc2)ON1C (relative stereo) [trans-11e/cis-11e (90:10)]
## Output 76

## Input Assign IC50 to the following record: CCOP(=O)(OCC)[C@H]1C[C@H](c2nc3ccccc3c(=O)n2Cc2cccc(F)c2)ON1C (relative stereo) [trans-11g]
## Output 62
